Measured % Inhibition @ 10 uM, listed per entry for reference.
- MEASURED ON: DPAP1 (Plasmodium falciparum)
- Sequence (Q8IIJ9 whole entry, looked up): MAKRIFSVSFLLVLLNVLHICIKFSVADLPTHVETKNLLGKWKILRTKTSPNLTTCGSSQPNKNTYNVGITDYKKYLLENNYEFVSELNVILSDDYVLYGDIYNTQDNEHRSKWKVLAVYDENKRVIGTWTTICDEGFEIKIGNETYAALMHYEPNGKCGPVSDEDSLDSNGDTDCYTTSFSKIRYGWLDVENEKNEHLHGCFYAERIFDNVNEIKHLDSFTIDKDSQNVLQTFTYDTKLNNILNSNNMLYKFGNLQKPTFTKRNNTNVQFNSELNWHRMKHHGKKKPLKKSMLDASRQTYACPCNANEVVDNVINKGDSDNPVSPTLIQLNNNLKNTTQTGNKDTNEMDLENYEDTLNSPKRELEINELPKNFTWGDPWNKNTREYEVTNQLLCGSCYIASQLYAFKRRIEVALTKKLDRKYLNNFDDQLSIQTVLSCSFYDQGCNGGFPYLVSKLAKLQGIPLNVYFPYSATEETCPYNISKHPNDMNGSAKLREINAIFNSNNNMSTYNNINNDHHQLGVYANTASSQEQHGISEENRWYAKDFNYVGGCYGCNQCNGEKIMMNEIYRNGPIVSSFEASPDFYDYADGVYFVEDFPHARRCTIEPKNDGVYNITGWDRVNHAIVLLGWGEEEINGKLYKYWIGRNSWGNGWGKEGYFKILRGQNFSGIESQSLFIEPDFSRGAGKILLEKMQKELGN
- ASSAY COMMENT: primary screen, percent inhibition; read by cleavage of a fluorogenic dipeptide substrate; higher = more effect of the substance;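 also: 30 min substrate incubation versus DMSO and 10 µM JCP410 controls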
- Parameters: species or system P. falciparum D10 trophozoite lysates; single well
Screen size: about 110,000 compounds; about 230 (0.21%) showed an effect of 50% or more. What follows is part of a selection rich in strong results, with near analogues and random picks from the rest.
// note: answer is a bare numeric in %

COc1ccc(CN(Cc2ccccc2)S(=O)(=O)c2ccc(-n3cnnn3)c(C)c2)cc1	2.08
Cc1ccc(-c2nc3cnn(-c4ccccc4)c(O)c-3n2)cc1	2
CC1C(C#N)=C(SCC(=O)c2ccc(Cl)cc2)N=C2CC(C)(C)CC(O)=C21 (stereo not drawn)	45.5
Cc1cc(S(=O)(=O)N2CCC(n3c(O)nc4ccccc43)CC2)ccc1-n1cnnn1	-0.671
Cc1ccc(-c2nn3c(CC#N)nnc3c3ccccc23)cc1	6.38
NC(=O)c1c(NC(=O)C2CC2)sc2c1CCCCC2	50.4

Q: # query: % Inhibition @ 10 uM of entry CC(C)CCOc1ccc(C(=O)CCNC(CC(C)C)C(=O)O)cc1 (stereo not drawn)
Ans: 30.1

Q: # query: % Inhibition @ 10 uM of entry CCn1c(C(=O)NCc2ccccn2)cc2oc3ccccc3c21
Ans: -3.96
